- target: binding partner (antigen) of C5A (XPA23)
- test_description: Biacore, K-off, fold vs original
# fold difference in affinity vs original values compiled below
Give the quantity in fold, number only.

Worked examples follow.
1. C5A (XPA23) VH I51L (antibody, V domains shown) VH: EVQLLESGGGLVQPGGSLRLSCAASGFTFSKYFMFWVRQAPGKGLEWVSVLSPSGGMTRYADSVKGRFTISRDNSKNTLYLQMNSLRAEDTAVYYCARVGYGGNSDYWGQGTLVTVSS VL: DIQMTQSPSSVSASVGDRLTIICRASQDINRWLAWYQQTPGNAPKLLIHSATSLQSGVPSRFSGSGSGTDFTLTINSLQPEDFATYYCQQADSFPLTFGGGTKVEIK ... 0.79
2. C5A (XPA23) VH I51A (antibody, V domains shown) VH: EVQLLESGGGLVQPGGSLRLSCAASGFTFSKYFMFWVRQAPGKGLEWVSVASPSGGMTRYADSVKGRFTISRDNSKNTLYLQMNSLRAEDTAVYYCARVGYGGNSDYWGQGTLVTVSS VL: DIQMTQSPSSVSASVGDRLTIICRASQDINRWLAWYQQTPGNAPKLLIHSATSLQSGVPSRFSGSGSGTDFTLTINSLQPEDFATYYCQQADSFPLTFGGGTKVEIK ... 1.04

Proceeding to the next binder to report its fold difference in affinity vs original.
Query block: For the binder shown here, C5A (XPA23) VH F35P (antibody, V domains shown) VH: EVQLLESGGGLVQPGGSLRLSCAASGFTFSKYFMPWVRQAPGKGLEWVSVISPSGGMTRYADSVKGRFTISRDNSKNTLYLQMNSLRAEDTAVYYCARVGYGGNSDYWGQGTLVTVSS VL: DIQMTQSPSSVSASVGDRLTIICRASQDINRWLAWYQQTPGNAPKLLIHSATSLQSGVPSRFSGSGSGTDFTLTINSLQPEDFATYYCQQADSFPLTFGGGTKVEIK , give the reported fold difference in affinity vs original.
Result block: 0.06
